test system: LXRb:RXRa (NR concentration 270 nM, RXRa partner concentration 90 nM); experiment: PBM binding z-score (relative to random genomic background probes); higher = stronger binding; sequences stand for … in GC…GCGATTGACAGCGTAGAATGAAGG
# cutoff 2 applies to PBM binding z-score; >= gives T, < gives F

Hi, just wondering whether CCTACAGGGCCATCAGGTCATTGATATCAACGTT shows PBM binding z-score of 2 or higher.
F

Quick check: does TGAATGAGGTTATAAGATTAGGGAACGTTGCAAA have PBM binding z-score greater than or equal to 2?
F

Form field: PBM binding z-score at least 2? Entry: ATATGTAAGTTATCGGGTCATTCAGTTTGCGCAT
T

Is PBM binding z-score for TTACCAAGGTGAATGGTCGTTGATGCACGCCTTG at or above 2?
F

Decide: is the reported value of PBM binding z-score for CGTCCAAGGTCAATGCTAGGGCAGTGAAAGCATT equal to or greater than 2?
T

Could you please find out whether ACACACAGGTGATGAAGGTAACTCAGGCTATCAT has PBM binding z-score that meets 2 or exceeds it?
F
